System: HeLa
Assay: Cytotoxicity against human HeLa cells
Assay type: functional, cell-based
measurementKind: pIC50
Lab note: report pIC50 as minus log10 of the concentration in molar units, number only.

Exam item: I would be grateful if you could share the reported pIC50 for O=c1c2ccccc2n2c(=O)c3ccccc3nc2n1CCCn1c(=O)c2ccccc2n2c(=O)c3ccccc3nc12 .
Marked response: 4.20

---

Test system: DNA
Test: Binding affinity to dsDNA (unknown origin) assessed as DNA intercalation by measuring change in fluorescence intensity by fluorescence-based screening assay
Type: nucleic-acid assay
In this section we review reported deltaFI values for a set of compounds.
Just the number, please, no unit after it.

structurestring=O=c1c2ccccc2n2c(=O)c3ccccc3nc2n1Cc1ccc([N+](=O)[O-])cc1 measurementkind=deltaFI measuredresult=0.079
structurestring=O=c1c2ccccc2n2c(=O)c3ccccc3nc2n1Cc1cccc2ccccc12 measurementkind=deltaFI measuredresult=0.014
structurestring=COC(=O)c1ccc(Cn2c(=O)c3ccccc3n3c(=O)c4ccccc4nc23)cc1 measurementkind=deltaFI measuredresult=0.426
structurestring=O=c1c2ccccc2n2c(=O)c3ccccc3nc2n1Cc1cccc(C(F)(F)F)c1 measurementkind=deltaFI measuredresult=0.76
structurestring=O=c1c2ccccc2n2c(=O)c3ccccc3nc2n1Cc1ccc(OC(F)(F)F)cc1 measurementkind=deltaFI measuredresult=0.29
structurestring=O=c1c2ccccc2n2c(=O)c3ccccc3nc2n1CCCn1c(=O)c2ccccc2n2c(=O)c3ccccc3nc12 measurementkind=deltaFI measuredresult=1

Exam item: Given the compound N#Cc1ccc(Cn2c(=O)c3ccccc3n3c(=O)c4ccccc4nc23)cc1 , what is its reported deltaFI?
Marked response: 0.172

Exam item: Another compound to check: O=c1c2ccccc2n2c(=O)c3ccccc3nc2n1-c1ccc(C(F)(F)F)cc1
Marked response: 0.084

This collection of values is drawn from ChEMBL document CHEMBL6134773.
